# Measured Target: PI3K delta (p110δ) (Homo sapiens, UniProt O00329)
# Sequence (O00329 whole entry): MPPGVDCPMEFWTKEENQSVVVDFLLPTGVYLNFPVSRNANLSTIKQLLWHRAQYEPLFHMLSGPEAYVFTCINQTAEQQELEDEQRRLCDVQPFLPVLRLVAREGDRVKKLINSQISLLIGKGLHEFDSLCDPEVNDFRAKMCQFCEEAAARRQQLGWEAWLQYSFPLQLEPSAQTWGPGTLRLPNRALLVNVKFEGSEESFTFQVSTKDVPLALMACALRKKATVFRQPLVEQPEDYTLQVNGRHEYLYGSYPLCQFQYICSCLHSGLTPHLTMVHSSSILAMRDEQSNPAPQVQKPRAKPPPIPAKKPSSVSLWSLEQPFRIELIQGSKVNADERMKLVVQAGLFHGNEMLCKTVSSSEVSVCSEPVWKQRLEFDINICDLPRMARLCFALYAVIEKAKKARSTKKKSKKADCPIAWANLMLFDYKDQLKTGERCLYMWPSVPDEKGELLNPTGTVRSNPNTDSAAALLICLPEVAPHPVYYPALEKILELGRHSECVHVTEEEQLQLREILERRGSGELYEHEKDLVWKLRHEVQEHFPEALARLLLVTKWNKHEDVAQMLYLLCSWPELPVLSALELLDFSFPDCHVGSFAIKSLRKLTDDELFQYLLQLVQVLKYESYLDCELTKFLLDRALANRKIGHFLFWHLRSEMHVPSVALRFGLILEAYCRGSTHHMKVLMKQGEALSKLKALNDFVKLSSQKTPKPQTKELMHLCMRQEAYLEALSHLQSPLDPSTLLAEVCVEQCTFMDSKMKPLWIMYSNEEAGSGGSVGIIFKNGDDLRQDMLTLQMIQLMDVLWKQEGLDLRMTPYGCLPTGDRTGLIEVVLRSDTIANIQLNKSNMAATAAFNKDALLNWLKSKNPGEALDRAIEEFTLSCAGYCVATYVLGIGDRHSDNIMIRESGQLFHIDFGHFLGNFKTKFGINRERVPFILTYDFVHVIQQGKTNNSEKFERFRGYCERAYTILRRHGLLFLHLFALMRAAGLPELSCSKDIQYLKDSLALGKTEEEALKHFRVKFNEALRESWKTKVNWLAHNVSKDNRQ
# Sequence (P27986 whole entry partner): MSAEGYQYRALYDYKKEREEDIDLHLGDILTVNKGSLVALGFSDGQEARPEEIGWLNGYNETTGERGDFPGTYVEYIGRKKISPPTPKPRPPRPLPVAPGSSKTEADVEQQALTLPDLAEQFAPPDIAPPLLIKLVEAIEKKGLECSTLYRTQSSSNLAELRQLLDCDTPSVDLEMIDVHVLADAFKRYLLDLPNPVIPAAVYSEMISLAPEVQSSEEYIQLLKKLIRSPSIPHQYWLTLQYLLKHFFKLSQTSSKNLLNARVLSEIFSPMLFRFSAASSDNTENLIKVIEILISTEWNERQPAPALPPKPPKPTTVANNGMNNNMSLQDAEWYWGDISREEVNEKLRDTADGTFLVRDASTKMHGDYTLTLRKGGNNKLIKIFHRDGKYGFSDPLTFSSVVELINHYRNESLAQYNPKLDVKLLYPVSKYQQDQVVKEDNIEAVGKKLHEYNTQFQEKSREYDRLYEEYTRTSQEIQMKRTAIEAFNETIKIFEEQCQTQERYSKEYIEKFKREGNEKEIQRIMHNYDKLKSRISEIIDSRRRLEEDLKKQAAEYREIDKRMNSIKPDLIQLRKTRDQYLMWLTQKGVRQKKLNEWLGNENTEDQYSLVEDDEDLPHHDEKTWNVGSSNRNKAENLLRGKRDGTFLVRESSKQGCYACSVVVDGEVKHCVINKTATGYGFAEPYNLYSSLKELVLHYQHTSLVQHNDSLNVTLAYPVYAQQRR
# Method: Luciferase-based luminescence assay (Kinase GLO), PI3K delta
# Measurement Parameters: 6.86 nM enzyme, 50 μM PIP2, 25 μM ATP, 2 hours reaction
Outcome Measure: IC50

Examples with their reported IC50 follow.
COc1ccc2c(c1)CCC2Nc1nc(N2CCOCC2)nc(-n2c(C(F)F)nc3ccccc32)n1 (centres unmarked) [Compound A9] :: 200 to 500 nM
FC(F)c1nc2ccccc2n1-c1nc(N[C@H]2CCCc3ccccc32)nc(N2CCOCC2)n1 [Compound A2] :: ≤ 100 nM
FC(F)c1nc2ccccc2n1-c1nc(NC2CCc3cc(Cl)ccc32)nc(N2CCOCC2)n1 (centres unmarked) [Compound A7] :: > 500 nM
FC(F)c1nc2ccccc2n1-c1nc(NC2CCc3ccc(Cl)cc32)nc(N2CCOCC2)n1 (centres unmarked) [Compound A8] :: 200 to 500 nM
FC(F)c1nc2ccccc2n1-c1nc(N[C@@H]2CCc3ccccc32)nc(N2CCOCC2)n1 [Compound A6] :: 200 to 500 nM
FC(F)c1nc2ccccc2n1-c1nc(N[C@H]2CCc3ccccc32)nc(N2CCOCC2)n1 [Compound A5] :: 100 to 200 nM
FC(F)c1nc2ccccc2n1-c1nc(NC2CCCc3ccccc32)nc(N2CCOCC2)n1 (centres unmarked) [Compound A1] :: 100 to 200 nM
FC(F)c1nc2ccccc2n1-c1nc(NC2CCc3ccccc32)nc(N2CCOCC2)n1 (centres unmarked) [Compound A4] :: ≤ 100 nM
COc1ccc2c(c1)C(Nc1nc(N3CCOCC3)nc(-n3c(C(F)F)nc4ccccc43)n1)CC2 (centres unmarked) [Compound A10] :: 200 to 500 nM
FC(F)c1nc2ccccc2n1-c1nc(NCc2ccccc2)nc(N2CCOCC2)n1 [Ref. 1, reference compound] :: 100 to 200 nM

Now consider the entry below.
Q: Provide value of IC50 for this record tested with PI3K delta (p110δ) (Homo sapiens, UniProt O00329): FC(F)c1nc2ccccc2n1-c1nc(N[C@@H]2CCCc3ccccc32)nc(N2CCOCC2)n1 [Compound A3]
Ans: > 500 nM

Recorded values, source patent US20140088103A1.
